target.of.assay: T1, recombinant tetanus toxin fragment C (rTTC) (Clostridium tetani, UniProt P04958 865-1315)
T1 sequence: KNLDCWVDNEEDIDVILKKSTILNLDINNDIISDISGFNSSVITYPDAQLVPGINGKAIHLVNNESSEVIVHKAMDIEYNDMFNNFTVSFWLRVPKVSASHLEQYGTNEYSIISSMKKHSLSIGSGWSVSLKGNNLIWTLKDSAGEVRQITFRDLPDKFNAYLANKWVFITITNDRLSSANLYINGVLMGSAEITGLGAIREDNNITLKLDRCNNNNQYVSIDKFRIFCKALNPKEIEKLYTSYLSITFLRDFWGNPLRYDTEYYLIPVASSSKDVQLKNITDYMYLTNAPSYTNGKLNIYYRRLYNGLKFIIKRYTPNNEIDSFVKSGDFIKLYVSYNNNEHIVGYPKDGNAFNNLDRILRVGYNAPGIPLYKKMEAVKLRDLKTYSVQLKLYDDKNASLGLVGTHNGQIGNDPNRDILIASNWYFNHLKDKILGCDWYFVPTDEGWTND
method.notes: ELISA, directly coated rTTC, E. coli supernatant
reported.metric: absorbance at 450 nm
Mention the unit after the number when you answer.

Asked: Report absorbance at 450 nm for SVT03 (VHH) VHH: QVQLQQSGGGSVQTGDSLTLSCTASGGSLNSYFVGWFRQSGGKEREFVSVIARTGRSTSYADSVKGRFTISRDNAANTVFLTMNNLRPDDTAIYYCAAVGRPGVLHLTQSYDYWGQGTQVTVSS please.
Given back: 0.061 A450

Asked: Report absorbance at 450 nm for SVT20 (VHH) VHH: QVQLQQSGGGLVQAGGSLRLSCAASGRTMSSYAMGWFRQAPGKQREFVAAISRSGGNTYYTDSVKGRFTISRDNAKNTLYLQMNSLKPEETAVYYCAADPNLMYESKWKYRALEAWGQGTLVTVSS please.
Given back: 0.165 A450

Asked: Report absorbance at 450 nm for SVT13 (VHH) VHH: QVQLQESGGGLVQAGGSLRLSCAVSGTNFDDYAIGWFRQAPGKRREAVACISKTDGVTRYGNGVKGRFTISSDEARNTVFLQMNDLKDEDTAIYYCIGDFKSCGMGYKPIDHWGRGIQVTVSS please.
Given back: 0.128 A450

Asked: Report absorbance at 450 nm for SVT06 (VHH) VHH: QVQLQESGGGSVQAGGSLRLSCTASELSYDDYTIAWFRRAAGEGRVEDGEGVASITKSYDRAYDNKINYGHSVKGRFTISRDNAKNTVYLQMTDLLPSDTAVYYCALDITPPGGVGASLTEGFLFDYWGQGTQVTVSS please.
Given back: 0.105 A450

Asked: Report absorbance at 450 nm for SVT31 (VHH) VHH: QVQLQESGGGSVQAGGSLTLSCAASEFSYNDYTIAWFRRAAGKGRVEDGEGVASITKSYDRAYDNRIHYADSVKGRFTISRDNAKNTVYLQMTSLNPSDTAVYYCALDITPPGGIGASLTEGFLFDYWGQGTQVTVSS please.
Given back: 0.218 A450

Asked: Report absorbance at 450 nm for SVT16 (VHH) VHH: QVQLQESGGGSVQAGDSLRLSCAASGRTISNYAMGWFRQAPGKQREFVAAISRSDNTYYTDSVKGRFTISRDNAKNTLYLQMNSLKPEETAVYYCAADPNLMYESKWKYRALEAWGQGTLVTVSS please.
Given back: 0.151 A450

Asked: Report absorbance at 450 nm for SVT05 (VHH) VHH: QVQLQESGGGLVQPGGSLRLSCSASGFSFTDDYGIGWFRSGPGKGREAVAPIADREAVAAIALSDGNTYYSASAKGRFTISRDNAKSTAYLQMNNLKPEDTATYYCAADFWGYGMSWPMATLWEYWGQGIQVTVSS please.
Given back: 0.108 A450
